# measurement-description: Inhibitory activity against c-AMP kinase; Did not inhibit c-AMP kinase
test-readout: IC50

>  <compound>
O=C1O[C@H]2[C@H](OC(=O)c3cc(O)c(O)c(O)c3)[C@@H](OC(=O)c3cc(O)c(O)c4c3C3C1=CC(=O)C(O)(O)C3(O)O4)[C@@H](OC(=O)c1cc(O)c(O)c(O)c1)O[C@@H]2COC(=O)c1cc(O)c(O)c(O)c1 (stereo partly drawn)

>  <test-readout>
IC50

>  <result>
Not Active

$$$$
>  <compound>
O=C(OC[C@H]1O[C@@H](O)[C@H](OC(=O)c2cc(O)c(O)c(O)c2)[C@@H](OC(=O)c2cc(O)c(O)c(O)c2)[C@@H]1OC(=O)c1cc(O)c(O)c(O)c1)c1cc(O)c(O)c(O)c1

>  <test-readout>
IC50

>  <result>
Not Active

$$$$
>  <compound>
O=C(O[C@H]1[C@H](O)C[C@](OC(=O)c2cc(O)c(O)c(O)c2)(C(=O)O)C[C@H]1OC(=O)c1cc(O)c(O)c(O)c1)c1cc(O)c(O)c(O)c1

>  <test-readout>
IC50

>  <result>
Not Active

$$$$

====

# measurement-description: Inhibition of c-AMP kinase PKA
# Design: species or system Bos taurus
Please note: IC50 exactly at 50 µM is N. Only values below 50 µM get Y.

>  <molecule>
O=C(OC[C@@H]1O[C@@H](OC(=O)c2cc(O)c(O)c(O)c2)[C@@H](OC(=O)c2cc(O)c(O)c(O)c2)[C@@H](OC(=O)c2cc(O)c(O)c(O)c2)[C@@H]1OC(=O)c1cc(O)c(O)c(O)c1Oc1cc2c(c(O)c1O)-c1c(cc(O)c(O)c1O)C(=O)OC[C@@H]1O[C@@H](OC(=O)c3cc(O)c(O)c(O)c3)[C@@H](OC(=O)c3cc(O)c(O)c(O)c3)[C@@H](OC(=O)c3cc(O)c(O)c(O)c3)[C@@H]1OC2=O)c1cc(O)c(O)c(O)c1

>  <discrete-label>
Y

$$$$
>  <molecule>
O=C(OC1COC(=O)c2cc(O)c(O)c(O)c2-c2c(cc(O)c(O)c2O)C(=O)OC1C1OC(=O)c2cc(O)c(O)c(O)c2-c2c(O)c(O)c(O)c3c2C(=O)OC1[C@@H]3O)c1cc(O)c(O)c(O)c1 (some centres not stated)

>  <discrete-label>
N

$$$$
>  <molecule>
O=C1OCC2OC(=O)c3cc(O)c(O)c(O)c3-c3c(O)c(O)c(O)c4c3C(=O)OC(C2OC(=O)c2cc(O)c(O)c(O)c2-c2c1cc(O)c(O)c2O)C1OC(=O)c2c-4c(O)c(O)c(O)c2[C@@H]1c1c(O)cc(O)c2c1O[C@H](c1ccc(O)c(O)c1)[C@@H](O)C2 (some centres not stated)

>  <discrete-label>
N

$$$$
>  <molecule>
O=C1OCC2OC(=O)c3cc(O)c(O)c(O)c3-c3c(O)c(O)c(O)c4c3C(=O)OC(C2OC(=O)c2cc(O)c(O)c(O)c2-c2c1cc(O)c(O)c2O)C1OC(=O)C2C4=C(O)C(=O)C23Oc2cc(O)c4c(c2[C@H]13)O[C@H](c1ccc(O)c(O)c1)[C@@H](O)C4 (some centres not stated)

>  <discrete-label>
Y

$$$$
>  <molecule>
O=C(O[C@@H]1O[C@H]2COC(=O)c3cc(O)c(O)c(O)c3-c3c(cc(O)c(O)c3O)C(=O)O[C@H]2[C@@H]2OC(=O)c3cc(O)c(O)c(O)c3-c3c(cc(O)c(O)c3O)C(=O)O[C@H]12)c1cc(O)c(O)c(Oc2c(O)c(O)c(O)c3c2C(=O)O[C@H]2[C@@H]4OC(=O)c5cc(O)c(O)c(O)c5-c5c(cc(O)c(O)c5O)C(=O)O[C@@H]4[C@H](OC(=O)c4cc(O)c(O)c(O)c4)O[C@H]2COC(=O)c2cc(O)c(O)c(O)c2-3)c1

>  <discrete-label>
Y

$$$$
>  <molecule>
O=C1O[C@H]2[C@@H]3OC(=O)c4cc(O)c(O)c(O)c4-c4c(cc(Oc5c(C(=O)O)cc(O)c(O)c5O)c(O)c4O)C(=O)OC[C@H]2O[C@@H](OC(=O)c2cc(O)c(O)c(O)c2)[C@@H]3OC(=O)c2cc(O)c(O)c3c2C2C1=CC(=O)C(O)(O)C2(O)O3 (some centres not stated) [E181]

>  <discrete-label>
N

$$$$
>  <molecule>
O=C(O[C@@H]1O[C@@H]2COC(=O)c3cc(Oc4c(C(=O)O)cc(O)c(O)c4O)c(O)c(O)c3-c3c(cc(O)c(O)c3O)C(=O)O[C@H]([C@H]1O)[C@@H]2O)c1cc(O)c(O)c(O)c1

>  <discrete-label>
N

$$$$

Reference for the values: ChEMBL document CHEMBL1149998
